# experimental_target: CA-PS-Pool II
# assay: Scatchard analysis of labeled steroid binding to CA-PS-pool II
# run_parameters: 3H-labeled steroid, 34° C.
pKd: −log10 of the molar value.
measured_quantity: pKd

{"compound": "CC(=O)[C@H]1CC[C@H]2[C@@H]3CCC4=CC(=O)CC[C@]4(C)[C@H]3CC[C@]12C", "data_value": 5.10}
{"compound": "C[C@]12CCC(=O)C[C@@H]1CC[C@@H]1[C@@H]2CC[C@]2(C)[C@@H](O)CC[C@@H]12 [DHT, Dihydrotestosterone]", "data_value": 7.84}
{"compound": "C[C@]12CCC(=O)C=C1CC[C@@H]1[C@@H]2[C@@H](O)C[C@@]2(C)[C@H]1CC[C@]2(O)C(=O)CO [cortisol, Hydrocortisone/Cortisol]", "data_value": 5.72}

---

# run_parameters: read-out: Kd of specific binding of ^3H-DHT, Scatchard analysis
pKd: −log10 of the molar value.

{"compound": "C[C@]12CCC(=O)C[C@@H]1CC[C@@H]1[C@@H]2CC[C@]2(C)[C@@H](O)CC[C@@H]12 [DHT, Dihydrotestosterone]", "pKd": "8.30 to 9.00"}

---

# experimental_target: progesterone receptors in MTW9/PL2 cells (Rattus norvegicus, UniProt Q63449)
# Sequence (Q63449 669-923 limits assumed): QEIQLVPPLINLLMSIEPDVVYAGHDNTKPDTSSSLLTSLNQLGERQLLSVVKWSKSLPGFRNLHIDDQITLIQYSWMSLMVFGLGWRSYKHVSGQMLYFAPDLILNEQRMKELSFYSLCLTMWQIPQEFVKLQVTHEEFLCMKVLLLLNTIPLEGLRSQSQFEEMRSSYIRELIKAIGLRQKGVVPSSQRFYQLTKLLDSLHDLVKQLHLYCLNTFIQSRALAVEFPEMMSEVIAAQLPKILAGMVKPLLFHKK
# assay: ^3H-progesterone binding to MTW9/PL2 cells
measured_quantity: Kd (nM)

{"compound": "CC(=O)[C@H]1CC[C@H]2[C@@H]3CCC4=CC(=O)CC[C@]4(C)[C@H]3CC[C@]12C [progesterone, Progesterone]", "measured_quantity": "Kd", "data_value": 3.29}

---

# Test system: CA-PS-Pool II from rat serum
# assay: Scatchard analysis of labeled steroid binding to the SHBG-like pools from rat serum
# run_parameters: 3H-labeled steroid

{"compound": "C[C@]12CCC(=O)C=C1CC[C@@H]1[C@@H]2[C@@H](O)C[C@@]2(C)[C@H]1CC[C@]2(O)C(=O)CO [cortisol, Hydrocortisone/Cortisol]", "CA-PS-Pool II Ka [M⁻¹]": 180000}
{"compound": "C[C@]12CCC(=O)C[C@@H]1CC[C@@H]1[C@@H]2CC[C@]2(C)[C@@H](O)CC[C@@H]12 [DHT, Dihydrotestosterone]", "CA-PS-Pool II Ka [M⁻¹]": "4.1e+07"}
{"compound": "C[C@]12CC[C@@H]3c4ccc(O)cc4CC[C@H]3[C@@H]1CC[C@@H]2O [E2, 17β-estradiol]", "CA-PS-Pool II Ka [M⁻¹]": "2.4e+07"}
{"compound": "CC(=O)[C@H]1CC[C@H]2[C@@H]3CCC4=CC(=O)CC[C@]4(C)[C@H]3CC[C@]12C", "CA-PS-Pool II Ka [M⁻¹]": 140000}

---

Measured Kd values are reported for all entries that follow.
# experimental_target: CA-PS-Pool II from rat serum
# assay: Scatchard analysis of labeled steroid binding to the SHBG-like pools from rat serum
# run_parameters: 3H-labeled steroid

{"compound": "C[C@]12CC[C@@H]3c4ccc(O)cc4CC[C@H]3[C@@H]1CC[C@@H]2O [E2, 17β-estradiol]", "value_unit": "µM", "Kd": 0.041}
{"compound": "C[C@]12CCC(=O)C=C1CC[C@@H]1[C@@H]2[C@@H](O)C[C@@]2(C)[C@H]1CC[C@]2(O)C(=O)CO [cortisol, Hydrocortisone/Cortisol]", "value_unit": "µM", "Kd": 5.7}
{"compound": "CC(=O)[C@H]1CC[C@H]2[C@@H]3CCC4=CC(=O)CC[C@]4(C)[C@H]3CC[C@]12C", "value_unit": "µM", "Kd": 6.9}
{"compound": "C[C@]12CCC(=O)C[C@@H]1CC[C@@H]1[C@@H]2CC[C@]2(C)[C@@H](O)CC[C@@H]12 [DHT, Dihydrotestosterone]", "value_unit": "µM", "Kd": 0.024}
